- target.system: CLK3 (human) (UniProt P49761)
- Sequence (P49761 whole entry, looked up): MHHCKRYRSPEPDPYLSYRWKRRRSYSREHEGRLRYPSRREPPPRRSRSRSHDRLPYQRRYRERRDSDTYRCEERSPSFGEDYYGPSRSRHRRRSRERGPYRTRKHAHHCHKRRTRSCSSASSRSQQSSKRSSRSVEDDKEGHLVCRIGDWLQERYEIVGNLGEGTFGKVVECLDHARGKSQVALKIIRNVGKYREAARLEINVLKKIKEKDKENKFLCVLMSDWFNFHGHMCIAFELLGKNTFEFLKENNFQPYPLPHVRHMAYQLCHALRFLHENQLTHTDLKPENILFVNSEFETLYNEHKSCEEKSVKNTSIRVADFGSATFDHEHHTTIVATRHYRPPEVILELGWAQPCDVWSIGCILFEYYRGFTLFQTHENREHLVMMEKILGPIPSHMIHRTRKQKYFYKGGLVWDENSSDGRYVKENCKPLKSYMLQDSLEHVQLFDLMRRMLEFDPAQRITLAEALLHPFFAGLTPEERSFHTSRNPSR
- experimental.details: radiometric filter-binding kinase assay, Kinase HotSpot
- settings: compound 0.5 µM; ATP 10 µM
measure: residual activity (%)
Number in %, nothing else.

- compound: "O=C1NC(=O)C(c2cn(CCCn3ccnc3)c3ccccc23)=C1Nc1ccccc1"
  target.system: "CLK3 (human) (UniProt P49761)"
  residual activity (%): 93.9

The compound listed as O=S(=O)(c1cccc2cnccc12)N1CCCNCC1 has a reported residual activity of 83.7

The compound listed as CC(=O)c1ccc(N2CCOCC2)cc1O has a reported residual activity of 101

The compound listed as O=C1Nc2ccc(Cl)cc2/C1=C/c1cc(Cl)c(O)c(Cl)c1 has a reported residual activity of 90.9

The compound listed as Cc1ccc(NC2=CC(=O)c3sc(C)nc3C2=O)cc1 has a reported residual activity of 98.6

The compound listed as COc1cc2ncnc(Nc3cccc(Cl)c3)c2cc1OC has a reported residual activity of 90.5

The compound listed as O=c1cc(N2CCOCC2)oc2c1ccc1ccccc12 has a reported residual activity of 81.1

The compound listed as CCN(CC)CCNC(=O)c1c(C)[nH]c(/C=C2\C(=O)Nc3ccc(F)cc32)c1C has a reported residual activity of 105

The compound listed as Oc1cccc(-c2nc(N3CCOCC3)c3oc4ncccc4c3n2)c1 has a reported residual activity of 93.1

The compound listed as CCN(CC)CCNC(=O)c1c(C)[nH]c(/C=C2\C(=O)Nc3ccc(Cl)cc32)c1C has a reported residual activity of 101

The compound listed as Nc1cccc(-c2cc3c(Oc4cccc(O)c4)ncnc3[nH]2)c1 has a reported residual activity of 74

The compound listed as CNc1cc2c(Nc3cccc(Br)c3)ncnc2cn1 has a reported residual activity of 87.6

The compound listed as COc1ccc(COc2ccc(Cc3cnc(N)nc3N)cc2OC)cc1 has a reported residual activity of 98.3

----------
Below, each entry is listed with its recorded residual activity.
- target.system: UniProtKB P07947
- Sequence (P07947 whole entry, looked up): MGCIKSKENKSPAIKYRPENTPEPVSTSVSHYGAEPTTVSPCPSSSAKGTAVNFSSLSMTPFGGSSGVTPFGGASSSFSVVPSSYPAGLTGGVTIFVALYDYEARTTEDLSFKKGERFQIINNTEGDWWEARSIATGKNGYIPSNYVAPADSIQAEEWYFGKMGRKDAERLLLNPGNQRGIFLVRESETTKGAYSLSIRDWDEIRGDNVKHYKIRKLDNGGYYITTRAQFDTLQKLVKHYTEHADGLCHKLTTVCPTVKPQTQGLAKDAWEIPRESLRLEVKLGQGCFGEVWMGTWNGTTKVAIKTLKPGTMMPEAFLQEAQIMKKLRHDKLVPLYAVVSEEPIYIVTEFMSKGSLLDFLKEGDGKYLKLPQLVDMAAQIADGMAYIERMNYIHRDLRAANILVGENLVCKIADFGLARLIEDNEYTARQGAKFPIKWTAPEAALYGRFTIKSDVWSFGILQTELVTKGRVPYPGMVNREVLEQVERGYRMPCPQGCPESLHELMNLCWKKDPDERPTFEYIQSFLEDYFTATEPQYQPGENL
- experimental.details: radiometric filter-binding kinase assay, Kinase HotSpot
- settings: compound 0.5 µM; ATP 10 µM
Number in %, nothing else.

- compound: "O=C1NC(=O)C(c2cn(CCCn3ccnc3)c3ccccc23)=C1Nc1ccccc1"
  target.system: "UniProtKB P07947"
  measure: "residual activity"
  measured: 89.3
- compound: "c1ccc(-c2n[nH]c3c2oc2ccccc23)cc1"
  target.system: "UniProtKB P07947"
  measure: "residual activity"
  measured: 86.1
- compound: "COc1ccc2c(c[n+](C)c3c4cc5c(cc4ccc23)OCO5)c1OC"
  target.system: "UniProtKB P07947"
  measure: "residual activity"
  measured: 93.8
- compound: "COc1ccc(COc2ccc(Cc3cnc(N)nc3N)cc2OC)cc1"
  target.system: "UniProtKB P07947"
  measure: "residual activity"
  measured: 94.8
- compound: "N#C/C(=C(/N)Sc1ccc(N)cc1)c1ccccc1C(F)(F)F"
  target.system: "UniProtKB P07947"
  measure: "residual activity"
  measured: 111
- compound: "CNC(=O)c1cc(Oc2ccc(NC(=O)Nc3ccc(Cl)c(C(F)(F)F)c3)cc2)ccn1"
  target.system: "UniProtKB P07947"
  measure: "residual activity"
  measured: 82.8
- compound: "c1ccc(-c2n[nH]cc2-c2ccnc3ccccc23)nc1"
  target.system: "UniProtKB P07947"
  measure: "residual activity"
  measured: 93.3
- compound: "O=c1cc(N2CCOCC2)oc2c1ccc1ccccc12"
  target.system: "UniProtKB P07947"
  measure: "residual activity"
  measured: 98.7

The compound listed as Cc1ccc(Nc2nccc(N(C)c3ccc4c(C)n(C)nc4c3)n2)cc1S(N)(=O)=O has a reported residual activity of 52.6

The compound listed as O=S(=O)(c1cccc2cnccc12)N1CCCNCC1 has a reported residual activity of 96.5

The compound listed as CNc1cc2c(Nc3cccc(Br)c3)ncnc2cn1 has a reported residual activity of 74.7

From: the kinase profiling compilation of Christmann-Franck et al. (2016)
